- study.target: ERβ (Homo sapiens, UniProt Q92731)
- Sequence (Q92731 whole entry): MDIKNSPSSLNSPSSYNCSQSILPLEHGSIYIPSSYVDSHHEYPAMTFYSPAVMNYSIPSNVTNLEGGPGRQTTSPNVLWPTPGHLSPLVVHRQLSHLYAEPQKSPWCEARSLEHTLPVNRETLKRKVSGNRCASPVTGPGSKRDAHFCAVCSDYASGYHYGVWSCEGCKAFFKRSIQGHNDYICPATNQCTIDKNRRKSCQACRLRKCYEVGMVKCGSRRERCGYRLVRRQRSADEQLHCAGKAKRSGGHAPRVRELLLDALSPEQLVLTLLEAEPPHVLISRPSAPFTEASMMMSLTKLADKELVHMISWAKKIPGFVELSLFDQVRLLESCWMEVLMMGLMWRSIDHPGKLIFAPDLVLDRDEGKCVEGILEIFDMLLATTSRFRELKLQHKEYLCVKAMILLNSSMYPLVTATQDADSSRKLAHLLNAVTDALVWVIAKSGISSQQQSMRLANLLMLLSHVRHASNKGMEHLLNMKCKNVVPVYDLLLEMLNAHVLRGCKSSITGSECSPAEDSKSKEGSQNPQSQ
- experiment.notes: Phage ELISA / fingerprint on ER immobilized on biotinylated ERE (Examples 2.3-2.5)
- Assay type: binding
- Set-up: purchased PanVera Corporation, Madison, WI; key: semiquantitative scale of 0 to 7+; 1+: semiquantitative scale of 0 to 7+; 2+: semiquantitative scale of 0 to 7+; 3+: semiquantitative scale of 0 to 7+; 4+: semiquantitative scale of 0 to 7+; 5+: semiquantitative scale of 0 to 7+; 6+: semiquantitative scale of 0 to 7+; semiquantitative scale of 0 to 7+
- condition.label: ERβ and buffer
measurement.kind: binding activity, ERβ and buffer

# annotated cases, reported binding activity, ERβ and buffer shown
sequence.entry | endpoint.result
SRLHCLLDSSYCSSR [Peptide 1b-β] | 7+
SSHCHTRLCSLLTSR [Peptide 15E-β] | 4+
SSWDFRVPWWYNNSR [Peptide 31E-β] | 3+

Next item in the queue.
For ERβ (Homo sapiens, UniProt Q92731), give binding activity, ERβ and buffer of the listed sequence: SSDTRSRLYELLSSSYTSR [Peptide 5E-β] 5+
